# credit: patent EP0123217A1

What wirksame Mindestdosierung E. tenella was measured for each of the following?
tested on: E. tenella; assay: Coccidiosis in chicks, minimum effective dose (oocyst excretion, clinical symptoms, mortality); assay type: in vivo, Eimeria tenella; conditions: chicks 9 to 11 days old, infected with 4000 sporulated oocysts; compound given from 3 days before to 8 days after infection
Report only the number, with the unit ppm understood.

What value of measured wirksame Mindestdosierung E. tenella is listed for CCCc1ncc(C[n+]2ccccc2C)c(N)n1 [A, reference compound] ?
125

What value of measured wirksame Mindestdosierung E. tenella is listed for Cn1c(=O)[nH]c(=O)n(-c2cc(Cl)c(Oc3ccc(SCC(F)(F)F)cc3)c(Cl)c2)c1=O [[drawing] r3] ?
50

What value of measured wirksame Mindestdosierung E. tenella is listed for Cn1c(=O)[nH]c(=O)n(-c2cc(Cl)c(Oc3ccc(S(=O)(=O)CC(F)(F)F)cc3)c(Cl)c2)c1=O [[drawing] r5] ?
10

What value of measured wirksame Mindestdosierung E. tenella is listed for COc1cc(-n2c(=O)[nH]c(=O)n(C)c2=O)ccc1Oc1ccc(SCC(F)(F)F)cc1 [[drawing] r4] ?
50
